The reported numbers originate from ChEMBL document CHEMBL4265974.

- protocol-text: Cmax in BALB/C mouse plasma at 14.5 mg/kg, po administered as single dose by LC-MS/MS analysis
- Type: ADME, organism-based
- Parameters: dose 14.5 mg/kg, route oral
measurement-label: Cmax (ng/mL)
// units = ng/mL; emit number, no label

What value of Cmax has been recorded for this entry: COCCCOc1cc2c(cc1OC)-c1cc(=O)c(C(=O)O)cn1[C@H](C(C)C)C2 2040

====

- protocol-text: Cmax in BALB/C mouse plasma at 1 mg/kg, iv administered as single dose by LC-MS/MS analysis
- Format: ADME, organism-based
- Parameters: dose 1 mg/kg, route intravenous
measurement-label: Cmax (ng/mL)
// units = ng/mL; emit number, no label

What value of Cmax has been recorded for this entry: COCCCOc1cc2c(cc1OC)-c1cc(=O)c(C(=O)O)cn1[C@H](C(C)C)C2 466

====

- protocol-text: Volume of distribution at steady state in BALB/C mouse at 1 mg/kg, iv by LC-MS/MS analysis
- Assay type: ADME, organism-based
- assay-conditions: in vivo, read-out: Vdss
measurement-label: Vd (L/kg)
// units = L/kg; emit number, no label

What value of Vd has been recorded for this entry: COCCCOc1cc2c(cc1OC)-c1cc(=O)c(C(=O)O)cn1[C@H](C(C)C)C2 2.07

====

- protocol-text: Oral bioavailability in BALB/C mouse at 2 mg/kg administered as single dose by LC-MS/MS analysis
- Type: ADME, organism-based
- assay-conditions: in vivo
measurement-label: bioavailability (%)
// units = %; emit number, no label

What value of bioavailability has been recorded for this entry: COCCCOc1cc2c(cc1OC)-c1cc(=O)c(C(=O)O)cn1[C@H](C(C)C)C2 62

====

- protocol-text: Ratio of AUC (0 to t) in BALB/C mouse liver to plasma at 14.5 mg/kg, po administered as single dose by LC-MS/MS analysis
- Format: ADME, organism-based
- assay-conditions: read-out: Ratio AUC
measurement-label: Kp

What value of Kp has been recorded for this entry: COCCCOc1cc2c(cc1OC)-c1cc(=O)c(C(=O)O)cn1[C@H](C(C)C)C2 4

====

- protocol-text: Apparent permeability across apical to basolateral side in human Caco2 cells at 10 uM after 1 hr
- Format: ADME, cell-based
- assay-conditions: Caco-2
measurement-label: Papp A→B at 1 h, 10 µM (×10⁻⁶ cm/s)
// units = ×10⁻⁶ cm/s; emit number, no label

What value of Papp A→B at 1 h, 10 µM has been recorded for this entry: COCCCOc1cc2c(cc1OC)-c1cc(=O)c(C(=O)O)cn1[C@H](C(C)C)C2 12.8

====

- protocol-text: Cmax in BALB/C mouse liver at 14.5 mg/kg, po administered as single dose by LC-MS/MS analysis
- Format: ADME, organism-based
- Set-up: dose 14.5 mg/kg, route oral
measurement-label: Cmax (ng/mL)
// units = ng/mL; emit number, no label

What value of Cmax has been recorded for this entry: COCCCOc1cc2c(cc1OC)-c1cc(=O)c(C(=O)O)cn1[C@H](C(C)C)C2 11000
